Biological target: PARS (Mus musculus)
Sequence (P11103 whole entry): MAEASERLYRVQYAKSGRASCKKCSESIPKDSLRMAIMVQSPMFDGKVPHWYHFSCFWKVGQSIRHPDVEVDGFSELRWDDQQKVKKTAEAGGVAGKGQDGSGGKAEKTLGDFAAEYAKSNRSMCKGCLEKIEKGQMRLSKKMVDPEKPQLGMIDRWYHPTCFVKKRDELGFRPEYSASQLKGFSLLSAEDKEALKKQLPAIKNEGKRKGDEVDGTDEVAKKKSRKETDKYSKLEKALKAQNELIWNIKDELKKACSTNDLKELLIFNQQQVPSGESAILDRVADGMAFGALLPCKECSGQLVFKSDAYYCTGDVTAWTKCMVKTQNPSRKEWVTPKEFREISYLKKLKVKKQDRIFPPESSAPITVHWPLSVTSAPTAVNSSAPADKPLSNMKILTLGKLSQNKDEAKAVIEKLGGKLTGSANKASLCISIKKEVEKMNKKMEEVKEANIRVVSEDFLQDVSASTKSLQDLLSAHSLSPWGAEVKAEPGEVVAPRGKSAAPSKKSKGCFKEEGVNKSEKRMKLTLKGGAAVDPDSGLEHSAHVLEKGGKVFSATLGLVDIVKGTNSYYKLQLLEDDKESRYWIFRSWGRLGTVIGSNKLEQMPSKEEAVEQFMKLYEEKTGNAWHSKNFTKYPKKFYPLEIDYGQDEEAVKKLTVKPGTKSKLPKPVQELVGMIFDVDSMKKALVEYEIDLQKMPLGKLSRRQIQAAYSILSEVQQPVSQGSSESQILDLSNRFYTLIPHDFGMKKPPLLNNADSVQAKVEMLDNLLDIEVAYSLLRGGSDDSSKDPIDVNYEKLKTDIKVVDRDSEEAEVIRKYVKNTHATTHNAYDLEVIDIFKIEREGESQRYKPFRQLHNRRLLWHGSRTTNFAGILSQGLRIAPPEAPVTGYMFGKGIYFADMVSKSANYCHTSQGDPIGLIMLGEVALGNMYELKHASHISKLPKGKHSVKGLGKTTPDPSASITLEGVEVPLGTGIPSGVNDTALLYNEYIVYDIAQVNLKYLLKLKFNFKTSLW
Assay: High glucose induced PARS activation in murine lung microvascular endothelial cells
Type: cell-based
Design: endogenous in cells; host or cells: primary lung microvascular endothelial cells from wild-type mice
Conditions: 30 mM glucose, 6 hours; PJ34 100 nM-3 μM, MnTBAP 100 μM, carboxy-PTIO 300 μM, L-NMA 3 mM, L-NAME 3 mM
Endpoint label: high glucose induced PARP/PARS activation

Smiles string | Measurement
O=C(O)c1ccc(/C2=C3\C=CC(=N3)/C(c3ccc(C(=O)O)cc3)=c3/cc/c4[n]3[Mn]([Cl])[n]3c2ccc3/C(c2ccc(C(=O)O)cc2)=C2/C=CC(=N2)\C=4c2ccc(C(=O)O)cc2)cc1 | attenuated
COC(=O)[C@@H](N)CCCNC(=N)N[N+](=O)[O-] | significantly reduced
CNC(=N)NCCC[C@H](N)C(=O)O | significantly reduced
CC1(C)N([O])C(c2ccc(C(=O)O)cc2)=[N+]([O-])C1(C)C | attenuated
